Data origin, for the record: paper PMC7408095

- ASSAY_INFO: Plasma pharmacokinetics of sorafenib and sorafenib N-oxide in rats (HPLC-UV);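 also: pharmacokinetic parameters were computed with Phoenix WinNonlin 8.0 software from the plasma concentration–time curve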
- CONDITION_DETAILS: male, Wistar, rat, plasma, po, 100 mg/kg, AUC0-t, rat plasma; single oral sorafenib 100 mg/kg b.w. alone (IIISOR group)
ENDPOINT_NAME: AUC0-t (µg·h/mL)

>>> numeric_result("CNC(=O)c1cc(Oc2ccc(NC(=O)Nc3ccc(Cl)c(C(F)(F)F)c3)cc2)ccn1")
62.8

---

- ASSAY_INFO: in vivo
- CONDITION_DETAILS: male, Wistar, rat, plasma, po, 100 mg/kg
ENDPOINT_NAME: MRT last (h)

>>> numeric_result("CN(C)C(=N)N=C(N)N [metformin]")
9.81
